Test system: PBMC
TEST METHOD NOTES: Cellular uptake in human PBMC at 0.1 uM assessed as TFV level after 24 hrs by MS/MS analysis
Assay type: ADME, cell-based
REPORTED ENDPOINT: Drug uptake (pmol/10^6 cells)
Give the number; pmol/10^6 cells is assumed, so skip it.

What the record says about CCCCCCCCCCCCCCCCOCCCOP(=O)(O)CO[C@H](C)Cn1cnc2c(N)ncnc21 : Drug uptake is 0.05

###

System: Human immunodeficiency virus 1
TEST METHOD NOTES: Antiviral activity against HIV1 subtype E isolate CMU06 infected in human PBMC after 48 to 72 hrs by MTS assay
Assay type: functional, organism-based
TEST CONTEXT: Human immunodeficiency virus 1, isolate CMU06
REPORTED ENDPOINT: EC50 (nM)
Give the number; nM is assumed, so skip it.

Cc1cn([C@H]2C[C@H](N=[N+]=[N-])[C@@H](CO)O2)c(=O)[nH]c1=O [ZIDOVUDINE] : 5.5

What the record says about CCCCCCCCCCCCCCCCOCCCOP(=O)(O)CO[C@H](C)Cn1cnc2c(N)ncnc21 [TENOFOVIR EXALIDEX] : EC50 is 2.3

###

Tested on: Human immunodeficiency virus 1
TEST METHOD NOTES: Antiviral activity against HIV1 subtype B isolate Ba-L infected in human PBMC after 48 to 72 hrs by MTS assay
Format: functional, organism-based
TEST CONTEXT: Human immunodeficiency virus 1, isolate Ba-L
REPORTED ENDPOINT: EC50
A complete answer gives the number followed by the unit.

What the record says about CCCCCCCCCCCCCCCCOCCCOP(=O)(O)CO[C@H](C)Cn1cnc2c(N)ncnc21 [TENOFOVIR EXALIDEX] : EC50 is 1.5 nM

###

Recorded pEC50 for the following compounds
Tested on: Human immunodeficiency virus 1
TEST METHOD NOTES: Antiviral activity against HIV1 7303-3 harboring reverse transcriptase 41L/44D/67N/69D/118I/210W/215Y mutant gene infected in human PBMC by ELISA
Type: functional, organism-based
TEST CONTEXT: Human immunodeficiency virus 1, 7303-3
For clarity, pEC50 is expressed as the negative log10 of concentration in mol/L.

Cc1cn([C@H]2C[C@H](N=[N+]=[N-])[C@@H](CO)O2)c(=O)[nH]c1=O : 5.52

Switching to the query record.
What the record says about CCCCCCCCCCCCCCCCOCCCOP(=O)(O)CO[C@H](C)Cn1cnc2c(N)ncnc21 : pEC50 is 7.72

###

Recorded EC50 for the following compounds
System: Human immunodeficiency virus 1
TEST METHOD NOTES: Antiviral activity against HIV1 subtype B isolate ADA infected in human MDM […] by MTS assay
Type: functional, organism-based
TEST CONTEXT: Human immunodeficiency virus 1, isolate ADA

CCCCCCCCCCCCCCCCOCCCOP(=O)(O)CO[C@H](C)Cn1cnc2c(N)ncnc21 : 3.1 nM

What the record says about Cc1cn([C@H]2C[C@H](N=[N+]=[N-])[C@@H](CO)O2)c(=O)[nH]c1=O : EC50 is 2.7 nM

###

Tested on: Human immunodeficiency virus 1
TEST METHOD NOTES: Antiviral activity against HIV1 isolate 220 harboring reverse transcriptase K70E/M184V mutant gene by phenosense assay
Format: functional, organism-based
TEST CONTEXT: Human immunodeficiency virus 1, isolate 220
REPORTED ENDPOINT: log10 EC50 (log10 of the value in nM)
Please be aware that the numbers have been log10-transformed from EC50 in nM.

Take a look at these entries with their results.
Cc1cn([C@H]2C[C@H](N=[N+]=[N-])[C@@H](CO)O2)c(=O)[nH]c1=O [ZIDOVUDINE] : 0.60
CCCCCCCCCCCCCCCCOCCCOP(=O)(O)CO[C@H](C)Cn1cnc2c(N)ncnc21 [TENOFOVIR EXALIDEX] : 0.11
C[C@H](Cn1cnc2c(N)ncnc21)OCP(=O)(O)O [TENOFOVIR ANHYDROUS] : 2.67
Nc1nc(NC2CC2)c2ncn([C@H]3C=C[C@@H](CO)C3)c2n1 [ABACAVIR] : 4.00
Cc1cn([C@H]2C=C[C@@H](CO)O2)c(=O)[nH]c1=O [STAVUDINE] : 2.59

Switching to the query record.
What the record says about O=c1[nH]cnc2c1ncn2[C@H]1CC[C@@H](CO)O1 [DIDANOSINE] : log10 EC50 is 4.00

###

Tested on: Human immunodeficiency virus 1
TEST METHOD NOTES: Antiviral activity against HIV1 isolate 066 harboring reverse transcriptase 184V mutant gene by phenosense assay
Assay type: functional, organism-based
TEST CONTEXT: Human immunodeficiency virus 1, isolate 066
REPORTED ENDPOINT: EC50 (nM)
Give the number; nM is assumed, so skip it.

Take a look at these entries with their results.
Nc1nc(NC2CC2)c2ncn([C@H]3C=C[C@@H](CO)C3)c2n1 : 4800
CCCCCCCCCCCCCCCCOCCCOP(=O)(O)CO[C@H](C)Cn1cnc2c(N)ncnc21 : 1.4

Switching to the query record.
What the record says about Cc1cn([C@H]2C=C[C@@H](CO)O2)c(=O)[nH]c1=O : EC50 is 460

###

Tested on: PBMC
TEST METHOD NOTES: Cellular uptake in PHA/IL-2-stimulated human PBMC at 0.1 uM assessed as TFV-diphosphate after 24 hrs by MS/MS analysis
Format: ADME, cell-based
REPORTED ENDPOINT: Drug uptake (pmol/10^6 cells)
Give the number; pmol/10^6 cells is assumed, so skip it.

What the record says about CCCCCCCCCCCCCCCCOCCCOP(=O)(O)CO[C@H](C)Cn1cnc2c(N)ncnc21 : Drug uptake is 0.25

###

Tested on: Human immunodeficiency virus 1
TEST METHOD NOTES: Antiviral activity against HIV1 subtype B isolate 96USHIPS7 infected in human PBMC after 48 to 72 hrs by MTS assay
Type: functional, organism-based
TEST CONTEXT: Human immunodeficiency virus 1, isolate 96USHIPS7
REPORTED ENDPOINT: pEC50
For clarity, pEC50 is expressed as the negative log10 of concentration in mol/L.

What the record says about CCCCCCCCCCCCCCCCOCCCOP(=O)(O)CO[C@H](C)Cn1cnc2c(N)ncnc21 : pEC50 is 8.82

###

Test system: PBMC
TEST METHOD NOTES: Cellular uptake in PHA/IL-2-stimulated human PBMC at 1 uM assessed as TFV-diphosphate level after 24 hrs by MS/MS analysis
Format: ADME, cell-based
REPORTED ENDPOINT: Drug uptake (pmol/10^6 cells)
Give the number; pmol/10^6 cells is assumed, so skip it.

CCCCCCCCCCCCCCCCOCCCOP(=O)(O)CO[C@H](C)Cn1cnc2c(N)ncnc21 : 1.7

Switching to the query record.
What the record says about C[C@H](Cn1cnc2c(N)ncnc21)OCP(=O)(O)O [TENOFOVIR ANHYDROUS] : Drug uptake is 0.05

###

Test system: Human immunodeficiency virus 1
TEST METHOD NOTES: Antiviral activity against HIV1 isolate 217 harboring reverse transcriptase D67N/K70E/M184V mutant gene by phenosense assay relative to wild type
Format: functional
Decision: fold change (FC) >= 0.8 yields Satisfied, all other cases yield Not satisfied.

C[C@H](Cn1cnc2c(N)ncnc21)OCP(=O)(O)O [TENOFOVIR ANHYDROUS] : Not satisfied

Task: Record Nc1nc(=O)n([C@@H]2CS[C@H](CO)O2)cc1F ; criterion: fold change (FC) no lower than 0.8. Met?
Result: Satisfied

Task: Record O=c1[nH]cnc2c1ncn2[C@H]1CC[C@@H](CO)O1 ; criterion: fold change (FC) no lower than 0.8. Met?
Result: Satisfied

Task: Record Nc1ccn([C@@H]2CS[C@H](CO)O2)c(=O)n1 ; criterion: fold change (FC) no lower than 0.8. Met?
Result: Satisfied

Task: Record Cc1cn([C@H]2C=C[C@@H](CO)O2)c(=O)[nH]c1=O ; criterion: fold change (FC) no lower than 0.8. Met?
Result: Not satisfied

Task: Record Cc1cn([C@H]2C[C@H](N=[N+]=[N-])[C@@H](CO)O2)c(=O)[nH]c1=O ; criterion: fold change (FC) no lower than 0.8. Met?
Result: Not satisfied

Task: Record Nc1nc(NC2CC2)c2ncn([C@H]3C=C[C@@H](CO)C3)c2n1 ; criterion: fold change (FC) no lower than 0.8. Met?
Result: Satisfied

###

Tested on: Human immunodeficiency virus 1
TEST METHOD NOTES: Antiviral activity against HIV1 isolate 188 harboring reverse transcriptase T215Y/M184V mutant gene by phenosense assay
Type: functional, organism-based
TEST CONTEXT: Human immunodeficiency virus 1, isolate 188
Recorded log10 EC50 for the following compounds
Please be aware that the numbers have been log10-transformed from EC50 in nM.

Take a look at these entries with their results.
CCCCCCCCCCCCCCCCOCCCOP(=O)(O)CO[C@H](C)Cn1cnc2c(N)ncnc21 : 0.23
O=c1[nH]cnc2c1ncn2[C@H]1CC[C@@H](CO)O1 : 3.90
C[C@H](Cn1cnc2c(N)ncnc21)OCP(=O)(O)O [TENOFOVIR ANHYDROUS] : 2.79

What the record says about Cc1cn([C@H]2C[C@H](N=[N+]=[N-])[C@@H](CO)O2)c(=O)[nH]c1=O : log10 EC50 is 1.85

What the record says about Cc1cn([C@H]2C=C[C@@H](CO)O2)c(=O)[nH]c1=O : log10 EC50 is 2.81

What the record says about Nc1nc(NC2CC2)c2ncn([C@H]3C=C[C@@H](CO)C3)c2n1 : log10 EC50 is 3.88
